Listed compounds paired with reported pKi
Molecular target: BRD4 (BDII_E352-M457) (Homo sapiens (Human), UniProt O60885)
Test: TR-FRET bromodomain binding assay, BRD4 BDII
Settings: mean Ki, calculated from IC50, probe Kd and probe concentration
Value format note: pKi is -log10 of concentration (mol/L); just state the number.

Worked set:
{"columns": ["COMPOUND", "RECORDED_MEASUREMENT"],
 "data": [
  ["CCNC(=O)c1cc2c(-c3cc(C(O)(C(F)(F)F)C(F)(F)F)cnc3Oc3c(C)cc(F)cc3C)cn(C)c(=O)c2[nH]1 [Example 80]", 8.28],
  ["Cc1cc(Cl)cc(C)c1Oc1ncc(C(C)(C)O)cc1-c1cn(C)c(=O)c2[nH]c(C(=O)NC(C)(C)C)cc12 [Example 95]", 8.32],
  ["Cc1cc(F)cc(C)c1Oc1ncc(C(C)(C)O)cc1-c1cn(C)c(=O)c2[nH]c(C(=O)NC(C)(C)C)cc12 [Example 44]", 8.14],
  ["CCNC(=O)c1cc2c(-c3cc(C(C)(O)CF)ccc3Oc3c(C)cc(Cl)cc3C)cn(C)c(=O)c2[nH]1 (stereo not drawn) [Example 88]", 8.96],
  ["Cc1cc(F)cc(C)c1Oc1ncc(C(C)(C)O)cc1-c1cn(C)c(=O)c2[nH]c(C(=O)NC(C)(C)C(F)(F)F)cc12 [Example 56]", 8.33],
  ["CCNC(=O)c1cc2c(-c3cc(C4(O)CC=CC4)cnc3Oc3c(C)cccc3C)cn(C)c(=O)c2[nH]1 [Example 4]", 8.51],
  ["CCNC(=O)c1cc2c(-c3nc(C(C)(C)O)ccc3Oc3c(C)cccc3C)cn(C)c(=O)c2[nH]1 [Example 77]", 8.66],
  ["CCNC(=O)c1cc2c(-c3cc(C4(O)CCCC4)cnc3Oc3c(C)cccc3C)cn(C)c(=O)c2[nH]1 [Example 6]", 8.64]
]}

Okay, now this compound:
Form field: reported pKi of CCNC(=O)c1cc2c(-c3cc(C(C)(O)CC(C)C)ccc3Oc3c(C)cccc3C)cn(C)c(=O)c2[nH]1 (stereo not drawn) [Example 105]
8.60

---

Measured pKi of individual entries
Biological target: BRD4 (BDII_E352-M457) (Homo sapiens (Human), UniProt O60885)
Assay: TR-FRET bromodomain binding assay, BRD4 BDII
Conditions: mean Ki, calculated from IC50, probe Kd and probe concentration
Please express pKi as -log10 of the molar concentration.

Take a look at these entries with their results.
{"columns": ["COMPOUND", "pKi"],
 "data": [
  ["CCNC(=O)c1cc2c(-c3nc(C(C)(C)O)ccc3Oc3c(C)cc(F)cc3C)cn(C)c(=O)c2[nH]1", 8.04],
  ["CCNC(=O)c1cc2c(-c3cc(C(C)(C)O)cnc3Oc3c(C)cc(C(C)(C)O)cc3C)cn(C)c(=O)c2[nH]1", 8.77],
  ["Cc1cccc(C(F)(F)F)c1Oc1ncc(C(C)(C)O)cc1-c1cn(C)c(=O)c2[nH]c(C(=O)NC3(C)CC3(F)F)cc12 (centres unmarked)", 7.61],
  ["CNC(=O)c1cc2c(-c3cc(C(C)(C)O)ccc3Oc3c(C)cc(F)cc3C)cn(C)c(=O)c2[nH]1", 9.10],
  ["Cc1cccc(C(F)(F)F)c1Oc1ccc(C(C)(O)CO)cc1-c1cn(C)c(=O)c2[nH]c(C(=O)NC(C)(C)C)cc12 (centres unmarked)", 7.69],
  ["Cc1cccc(C)c1Oc1ccc(C(C)(C)O)cc1-c1cn(C)c(=O)c2[nH]c(C(N)=O)cc12", 8.82],
  ["CCNC(=O)c1cc2c(-c3cc(C(O)(c4ccc(F)cc4)C4CC4)cnc3Oc3c(C)cccc3C)cn(C)c(=O)c2[nH]1 (centres unmarked)", 8.49],
  ["CCNC(=O)c1cc2c(-c3cc(C(C)(O)CO)ccc3Oc3c(C)cccc3C(F)(F)F)cn(C)c(=O)c2[nH]1 (centres unmarked)", 8.20],
  ["CCNC(=O)c1cc2c(-c3cc(C(C)(O)C(C)CC)cnc3Oc3c(C)cccc3C)cn(C)c(=O)c2[nH]1 (centres unmarked)", 8.51],
  ["CCNC(=O)c1cc2c(-c3cc(C(C)(C)O)ccc3Oc3c(C)cccc3C(F)F)cn(C)c(=O)c2[nH]1", 8.43]
]}

Item: CCNC(=O)c1cc2c(-c3cc(C(C)(C)O)cnc3Oc3c(C)ccc(Cl)c3C)cn(C)c(=O)c2[nH]1 Test system: BRD4 (BDII_E352-M457) (Homo sapiens (Human), UniProt O60885) Read-out: pKi Value: ?
8.96

// lookup pKi | system=BRD4 (BDII_E352-M457) (Homo sapiens (Human), UniProt O60885) | key= CCNC(=O)c1cc2c(-c3cc(C(C)(O)C(F)(F)F)ccc3Oc3c(C)cc(F)cc3C)cn(C)c(=O)c2[nH]1 (centres unmarked)
8.85

Find the measured pKi: item CCNC(=O)c1cc2c(-c3cc(C(C)(C)O)cnc3Oc3c(C)cc(Cl)cc3C)cn(C)c(=O)c2[nH]1 , target or system BRD4 (BDII_E352-M457) (Homo sapiens (Human), UniProt O60885).
8.43

For BRD4 (BDII_E352-M457) (Homo sapiens (Human), UniProt O60885), provide pKi of Cc1cc(F)cc(C)c1Oc1ncc(C(C)(C)O)cc1-c1cn(C)c(=O)c2[nH]c(C(=O)NC3(C)CC3(F)F)cc12 (centres unmarked) please.
7.92

---

Target: BRD4 (BDII_E352-M457) (Homo sapiens (Human))
Assay: TR-FRET bromodomain binding assay, BRD4 BDII
Settings: mean Ki, calculated from IC50, probe Kd and probe concentration
Each entry below carries its reported Ki.
Expressed in nM, but write only the number.

Worked examples, 3 molecules total:
{"columns": ["MOLECULE", "RECORDED_MEASUREMENT"],
 "data": [
  ["CCNC(=O)c1cc2c(-c3cc(C(C)(O)CCCO)ccc3Oc3c(C)cc(F)cc3C)cn(C)c(=O)c2[nH]1 (stereo not shown) [Example 128]", 1.3],
  ["CCNC(=O)c1cc2c(-c3cc(C(C)(C)O)ccc3Oc3c(C)ccc(F)c3C)cn(C)c(=O)c2[nH]1 [Example 104]", 1.2],
  ["Cc1cccc(Cl)c1Oc1ncc(C(C)(C)O)cc1-c1cn(C)c(=O)c2[nH]c(C(=O)NC34CC(C3)C4)cc12 [Example 63]", 1.5]
]}

Let us examine a further case.
Which Ki is reported for this molecule? Cc1cccc(C(F)(F)F)c1Oc1ncc(C(C)(C)O)cc1-c1cn(C)c(=O)c2[nH]c(C(=O)NC(C)(C)C)cc12 [Example 45]
12.5

---

Target: BRD4 (BDII_E352-M457) (Homo sapiens (Human))
Assay: TR-FRET bromodomain binding assay, BRD4 BDII
Conditions: mean Ki, calculated from IC50, probe Kd and probe concentration
ENDPOINT: pKi
The value called pKi is obtained by taking minus log10 of the concentration in mol/L.

Below: 2 compounds and their reported pKi.
{"columns": ["COMPOUND", "EXPERIMENTAL_TARGET", "pKi"],
 "data": [
  ["Cc1cc(F)cc(Cl)c1Oc1ccc(C(C)(O)CO)cc1-c1cn(C)c(=O)c2[nH]c(C(=O)NC(C)(C)C)cc12 (stereo not shown) [Example 118]", "BRD4 (BDII_E352-M457) (Homo sapiens (Human))", 7.98],
  ["CCNC(=O)c1cc2c(-c3cc(C(C)(C)O)cnc3Oc3c(C)cccc3Cl)cn(C)c(=O)c2[nH]1 [Example 29]", "BRD4 (BDII_E352-M457) (Homo sapiens (Human))", 8.89]
]}

Please turn your attention to the following entry.
Given the compound CCNC(=O)c1cc2c(-c3cc(C(C)(O)C(C)C)cnc3Oc3c(C)cccc3C)cn(C)c(=O)c2[nH]1 (stereo not shown) [Example 19] , what is its reported pKi?
8.40

---

# Ki values compiled below
Biological target: BRD4 (BDII_E352-M457) (Homo sapiens (Human))
Assay: TR-FRET bromodomain binding assay, BRD4 BDII
Conditions: mean Ki, calculated from IC50, probe Kd and probe concentration
# number only, unit nM dropped from output

Value wanted: Ki (BRD4 (BDII_E352-M457) (Homo sapiens (Human))) of entry CCNC(=O)c1cc2c(-c3cc(C(C)(O)C(F)(F)F)cnc3Oc3c(C)cc(F)cc3C)cn(C)c(=O)c2[nH]1 (centres unmarked)
2.5

Param readout= Ki; system= BRD4 (BDII_E352-M457) (Homo sapiens (Human)); entry= CCNC(=O)c1cc2c(-c3cc(C4(O)CCC4)ccc3Oc3c(C)cc(F)cc3C)cn(C)c(=O)c2[nH]1 ; returns value.
2

Missing value: Ki, BRD4 (BDII_E352-M457) (Homo sapiens (Human)), entry CCNC(=O)c1cc2c(-c3cc(S(C)(=O)=O)ccc3Oc3ccc(F)cc3F)cn(C)c(=O)c2[nH]1 [Compound Y, reference compound] . Fill in?
1.32

// fetch BRD4 (BDII_E352-M457) (Homo sapiens (Human)) Ki for CCNC(=O)c1cc2c(-c3cc(C(C)(O)CF)cnc3Oc3c(C)cc(Cl)cc3C)cn(C)c(=O)c2[nH]1 (centres unmarked)
2.5

Please state recorded Ki (tested on BRD4 (BDII_E352-M457) (Homo sapiens (Human))) of CCNC(=O)c1cc2c(-c3cc(C(C)(C)O)cnc3Oc3c(C)cc(F)cc3Cl)cn(C)c(=O)c2[nH]1
0.9

Request: Ki, test system BRD4 (BDII_E352-M457) (Homo sapiens (Human)), entry CCNC(=O)c1cc2c(-c3cc(C(C)(C)O)ccc3C3=CCC(F)(F)CC3)cn(C)c(=O)c2[nH]1
1.4

// fetch BRD4 (BDII_E352-M457) (Homo sapiens (Human)) Ki for Cc1cccc(C)c1Oc1ccc(C(C)(C)O)nc1-c1cn(C)c(=O)c2[nH]c(C(=O)NC(C)(C)C)cc12
8.7

Item Cc1cccc(Cl)c1Oc1ncc(C(C)(C)O)cc1-c1cn(C)c(=O)c2[nH]c(C(=O)NC3(C)CC3(F)F)cc12 (centres unmarked) with BRD4 (BDII_E352-M457) (Homo sapiens (Human)) - Ki?
11.3

Ki of CCNC(=O)c1cc2c(-c3cc(C(C)(C)O)ccc3C3=CCC(C)CC3)cn(C)c(=O)c2[nH]1 (centres unmarked) on BRD4 (BDII_E352-M457) (Homo sapiens (Human))?
1.5

Provide value of Ki for this record tested with BRD4 (BDII_E352-M457) (Homo sapiens (Human)): CCNC(=O)c1cc2c(-c3cc(C(C)(C)O)ccc3Oc3c(C)cccc3C)cn(C)c(=O)c2[nH]1
1.1

So what Ki did Cc1cc(F)cc(C)c1Oc1ccc(C(C)(O)CF)cc1-c1cn(C)c(=O)c2[nH]c(C(=O)NC(C)(C)C)cc12 (centres unmarked) get with BRD4 (BDII_E352-M457) (Homo sapiens (Human))?
2.8

Ki of CCNC(=O)c1cc2c(-c3cc(C(O)(C4CC4)C4CC4)cnc3Oc3c(C)cccc3C)cn(C)c(=O)c2[nH]1 on BRD4 (BDII_E352-M457) (Homo sapiens (Human))?
3

Request: Ki, test system BRD4 (BDII_E352-M457) (Homo sapiens (Human)), entry Cc1cccc(Cl)c1Oc1ccc(C(C)(C)O)cc1-c1cn(C)c(=O)c2[nH]c(C(=O)NC(C)(C)C)cc12
3.3

Item: CCNC(=O)c1cc2c(-c3cc(C(C)(O)CC(C)C)cnc3Oc3c(C)cccc3C)cn(C)c(=O)c2[nH]1 (centres unmarked) Test system: BRD4 (BDII_E352-M457) (Homo sapiens (Human)) Read-out: Ki Value: ?
3.8
